# tested-target: HLA-A*02:01
# experimental-protocol: IEDB peptide-MHC binding, purified MHC/competitive/radioactivity; bounds were set here for any values at or beyond the usual limits of such assays
# condition-parameters: source organism: Mammarenavirus brazilense
quantity-kind: IC50 (nM)
One number for each entry, in nM.

For orientation, consider the following solved cases.
{"columns": ["ordered-residues", "meas-value"],
 "data": [
  ["QLIFFLTLA", 122],
  ["TSLGLLYTV", 115],
  ["GQLFSFFEEV", 33],
  ["SNPNLFWAV", 1460]
]}

Go through the list and state IC50 for each entry.
1. ALIAVSLIAA
2. FTTTLFLHLV
3. LTSLGLLYTV
4. TLFFTTTLFL

1. 28
2. 473
3. 218
4. 423

---

Give measured pIC50 for each item. Keep answers brief.
# tested-target: HLA-A*02:02
# experimental-protocol: IEDB peptide-MHC binding, purified MHC/competitive/radioactivity; bounds were set here for any values at or beyond the usual limits of such assays
# condition-parameters: source organism: Vaccinia virus WR
Give bare numbers, as −log10 of the molar value.

Examples from the recorded data:
{"columns": ["ordered-residues", "pIC50"],
 "data": [
  ["AIFNNRNLA", 6.57],
  ["WVMDTLNGI", 8.01],
  ["NMLDDFSAGA", 6.51],
  ["CLKNEGVSGL", 6.90],
  ["RVLYDEFVTI", 6.82]
]}

Return reported pIC50 values for all items listed beneath this line.
1. IITILQDIV
2. TLNTLITLI
3. VMYAFTTPLI
4. DVSLSAYII
5. NAVTTNNLL
6. KAKQLCYCPA
7. ILSNKLLYAA
8. LISFFGLFDI

1. 6.08
2. 9.00
3. 9.14
4. 6.16
5. 5.73
6. 6.51
7. 8.09
8. 7.12

State recorded pIC50 for all listed sequences.
1. NLRCHSAHV
2. VLLPFYETL
3. LIVILFIMFM
4. NLETYTRPEI

6.42
5.39
7.07
6.27

I'm hoping you can list pIC50 for every sequence here, please.
1. TIAHINTLI
2. VLTILYYGA
3. RALKAYFTA
4. SIYIAVANCV
5. HVLLPFYETL

1. 7.68
2. 8.89
3. 5.63
4. 6.27
5. 7.54

Hi! Can you tell me pIC50 for each of these sequences?
1. VTFINDYANL
2. VIVVPVIDRL
3. MLDDFSAGA
4. DTMSIYIAVA
5. CTINVNSLA
6. YTRPEIDVL

7.00
5.34
7.17
7.72
5.98
6.94

I need pIC50 for every entry listed below, if you could help.
1. TLVKSGLTEV
2. KVEKYLPEV
3. VMPEKRNVVV

1: 7.19; 2: 5.98; 3: 5.45

List reported pIC50 for each of these sequences:
1. KLYGYASLTT
2. FVKENERVNV
3. TIAGGVCYYL
4. KMAVEVGSI
5. MMNERDVSV
6. SLTQVKELGI
7. HIGHHYIWI

1: 8.72; 2: 6.73; 3: 10.44; 4: 7.51; 5: 9.36; 6: 8.01; 7: 5.59

Please state pIC50 for every sequence in the list that follows.
1. YLSKEDRIIT
2. KLRSSPPIPM
3. NMINKLYGYA
4. SAFNDDGIYI
5. YVSPTEMVDV
6. IVNNFITKEI

1: 5.89; 2: 7.24; 3: 8.80; 4: 7.46; 5: 7.20; 6: 5.83

---

# tested-target: HLA-A*02:06
# experimental-protocol: IEDB peptide-MHC binding, purified MHC/competitive/radioactivity; bounds were set here for any values at or beyond the usual limits of such assays
# condition-parameters: source organism: Vaccinia virus WR
quantity-kind: log10 IC50 (log10 of the value in nM)
Record value = log10 of IC50 given in nM.

Parameter requested: log10 IC50. Apply to each item below.
1. CIVAAVIIMA
2. MVTDKTAYI
3. NTISGNIYSA
4. YMSNLFDIPL
5. MAFDISVNA
6. YIEDELRRA
7. MVEYLENQL

1: 2.87; 2: 1.40; 3: 2.59; 4: 2.10; 5: 1.11; 6: 3.09; 7: 3.60

Each sequence below has a reported value. Please supply its log10 IC50.
1. VVECLTVPNI
2. LLPLTSLVI
3. KVTVPTNDHI

[2.48, 3.16, 3.56]

---

# tested-target: HLA-A*02:06
# experimental-protocol: IEDB peptide-MHC binding, cellular MHC/competitive/fluorescence; bounds were set here for any values at or beyond the usual limits of such assays
# condition-parameters: source organism: Hepacivirus hominis
quantity-kind: IC50 (µM)
Answers are plain numbers, in µM.

Below, 3 sequences whose answers are already recorded.
{"columns": ["ordered-residues", "meas-value"],
 "data": [
  ["LLGLLLLCV", 19.1],
  ["VLIVMLLFA", 8.42],
  ["YVLLLFLLLA", 5.9]
]}

With those in mind, consider the next sequence.
Dear colleague, I am looking for the recorded IC50 of the following sequence: KIMSGEKPSV 9.47

---

Exercise: for every item that follows, state its recorded IC50.
# tested-target: HLA-A*30:02
# experimental-protocol: IEDB peptide-MHC binding, cellular MHC/competitive/fluorescence; bounds were set here for any values at or beyond the usual limits of such assays
# condition-parameters: source organism: Vaccinia virus WR
One number for each entry, in µM.

Worked examples follow.
{"columns": ["ordered-residues", "readout-units", "IC50"],
 "data": [
  ["VQYRILPMII", "µM", 7.85],
  ["VQSVLRDISI", "µM", 19.7]
]}

Your task in this section: give IC50 for each listed record.
1. VQTIVFIWFI
2. YQNEVTPEYI
3. QQFANVISKI
4. LQQNNSFII

13.3
8.74
9.29
40.8

---

# tested-target: HLA-A*02:06
# experimental-protocol: IEDB peptide-MHC binding, purified MHC/competitive/radioactivity; bounds were set here for any values at or beyond the usual limits of such assays
# condition-parameters: source organism: Vaccinia virus WR
// thresholds for IC50 classes: LOW = under 300 nM, MEDIUM = from 300 nM up to 1000 nM, HIGH = 1000 nM and over

Completed entries (count: 4):
{"columns": ["ordered-residues", "tested-target", "class"],
 "data": [
  ["LALWDSNFFT", "HLA-A*02:06", "HIGH"],
  ["QQLCTMERT", "HLA-A*02:06", "MEDIUM"],
  ["SIMSMMNIT", "HLA-A*02:06", "HIGH"],
  ["QIGGEAIFLI", "HLA-A*02:06", "LOW"]
]}

Hello team, could you let me know which band the following sequence falls into: AAITLVVISV LOW

Band assignment needed for KIYTLIYRQL please. MEDIUM

Band for the recorded IC50 of TVLTSVDIET ? MEDIUM

Each sequence maps to one class by IC50. Which class for ITTLLNETA ? MEDIUM

Exercise: read the entry VTYNIKPVIV and state which class it falls under. MEDIUM

Which class does VLTSVDIET fall in? LOW

Categorize the following entry: YVSVMNFIPI LOW

Any idea which band DIIDLLLPST is in? LOW

Which IC50 band matches SLGKSPLPSL ? HIGH

Please report the category associated with YTVEFDRDKV , nothing else. LOW

Assign a category based on measured IC50 for SIFVSTMPV and give only the class name. LOW

Which category fits this record: VVYHDDDNTT HIGH

---

# tested-target: HLA-A*02:02
# experimental-protocol: IEDB peptide-MHC binding, purified MHC/competitive/radioactivity; bounds were set here for any values at or beyond the usual limits of such assays
# condition-parameters: source organism: Vaccinia virus WR
Criterion: IC50 strictly less than 300 nM. Met: true. Not met: false.

Example entries and their recorded answers appear below.
{"columns": ["ordered-residues", "class"],
 "data": [
  ["YQNEVTPEYI", "true"],
  ["DVLPFDIKYI", "false"],
  ["KTANNYETI", "true"],
  ["LAISAVYFKA", "false"],
  ["TVPTNDHIPV", "false"]
]}

Hello, is IC50 of the following sequence strictly smaller than 300 nM? LIAGIILLI true

hey, is IC50 for SLFIESSICL lower than 300 nM or not? true

Say whether its IC50 is strictly beneath 300 nM. Entry: NLLEQLIENI false

In plain terms, does YTGGYDVSL come in under 300 nM for IC50? false

For this sequence, is IC50 lower than 300 nM? YIEDELRRAA false

Given DLNRMPTDML , is recorded IC50 strictly lower than 300 nM? false

Is 300 nM strictly greater than the sequence's reported IC50? sequence: QLLKILDNL true

In plain terms, does ALAEHISDSI come in under 300 nM for IC50? true

Please check: IC50 for VAVNKSNKPL , strictly under 300 nM or not? false

Determine if KLPTLFGRGV shows IC50 strictly lower than 300 nM. true

Bench note: check whether TIKESLLKET shows IC50 below 300 nM false
